# TARGET OF ASSAY: 11b-HSD1 (Mus musculus, UniProt P50172)
# Construct: endogenous in cells; host or cells: 3T3-L1 (ATCC-CL-173), differentiated into adipocytes
# Sequence (P50172 whole entry): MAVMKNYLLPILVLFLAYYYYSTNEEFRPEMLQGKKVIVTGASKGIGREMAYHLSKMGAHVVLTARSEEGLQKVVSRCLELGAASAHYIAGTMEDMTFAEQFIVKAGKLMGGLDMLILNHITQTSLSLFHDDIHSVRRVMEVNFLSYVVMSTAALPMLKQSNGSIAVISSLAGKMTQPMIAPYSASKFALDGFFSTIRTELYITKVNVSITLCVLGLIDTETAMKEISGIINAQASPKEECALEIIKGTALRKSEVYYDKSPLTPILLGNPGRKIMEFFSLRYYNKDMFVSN
# ASSAY DETAILS: Cellular assay, 11b-HSD1 activity in differentiated 3T3-L1 cells
# Assay type: cell-based
# STUDY CONDITIONS: 4 hour pre-incubation, pIC50 scored 1-3, read-out: [C2] HSD1 cellular 3T3-L1 Score
OUTCOME MEASURE: IC50

Reference set, count: 4
>  <MOLECULE>
CC(C)(C(=O)NC1C2CC3CC(C2)CC1C3)c1cccc(CCN2CCOCC2)c1 (stereo not drawn)

>  <IC50>
< 1000 nM

$$$$
>  <MOLECULE>
Cc1cc(CCC(=O)N2CCOCC2)cc(C(C)(C)C(=O)N[C@H]2[C@@H]3CC4C[C@H]2C[C@](O)(C4)C3)c1

>  <IC50>
< 1000 nM

$$$$
>  <MOLECULE>
CC(C)(C(=O)NC1C2CCCC1CCC2)c1ccccc1 (stereo not drawn)

>  <IC50>
< 1000 nM

$$$$
>  <MOLECULE>
COc1cc(C)cc(C(C)(C)C(=O)NC2C3CC4CC(C3)CC2C4)c1 (stereo not drawn)

>  <IC50>
< 1000 nM

$$$$

Incoming: What measured IC50 is associated with COC(C(=O)NC1C2CC3CC(C2)CC1C3)c1ccccc1 (stereo not drawn) on 11b-HSD1 (Mus musculus, UniProt P50172)?
Outgoing: 1000 to 10000 nM

Incoming: Next entry: CC(C)(C(=O)NC1C2CC3CC(C2)CC1C3)c1ccc(OCCN2CCOCC2)cc1 (stereo not drawn)
Outgoing: < 1000 nM

Incoming: Next entry: CC(C)(C(=O)NC1C2CC3CC(C2)CC1(O)C3)c1ccccc1 (stereo not drawn)
Outgoing: < 1000 nM

Incoming: Next entry: O=C(NC1C2CC3CC(C2)CC1C3)[C@H]1Cc2ccccc2CN1 (stereo partly drawn)
Outgoing: < 1000 nM

Incoming: Next entry: CC(C)(C(=O)NC1C2CC3CC(C2)CC1C3)c1cc(F)cc(F)c1 (stereo not drawn)
Outgoing: < 1000 nM

Incoming: Next entry: Cc1cc(C)cc(C(C)(C)C(=O)NC2C3CC4CC(C3)CC2C4)c1 (stereo not drawn)
Outgoing: < 1000 nM

Incoming: Next entry: CN(C)c1cccc(C(C)(C)C(=O)NC2C3CC4CC(C3)CC2C4)c1 (stereo not drawn)
Outgoing: < 1000 nM

Incoming: Next entry: CC(C)(C(=O)NC1C2CC3CC(C2)CC1C3)c1ccc2ccccc2c1 (stereo not drawn)
Outgoing: < 1000 nM

Incoming: Next entry: CC1(C)C2CCC1(C)C(NC(=O)C1(c3ccccc3)CC1)C2 (stereo not drawn)
Outgoing: < 1000 nM

Incoming: Next entry: O=C(NC1C2CC3CC(C2)CC1C3)C1CCCCc2ccccc21 (stereo not drawn)
Outgoing: < 1000 nM

Incoming: Next entry: CC(C)(C(=O)NC1C2CC3CC(C2)CC1C3)c1ccc(Cl)cc1Cl (stereo not drawn)
Outgoing: < 1000 nM

Incoming: Next entry: O=C(N[C@H]1[C@@H]2CC3C[C@H]1C[C@](O)(C3)C2)C1CCc2ccccc2C1 (stereo partly drawn)
Outgoing: < 1000 nM

Incoming: Next entry: CCC(C(=O)NC1C2CC3CC(C2)CC1C3)c1ccccc1 (stereo not drawn)
Outgoing: < 1000 nM

Incoming: Next entry: O=C(NC1C2CC3CC(C2)CC1C3)C1CCc2ccccc2N1 (stereo not drawn)
Outgoing: < 1000 nM

Source of measurements: patent US7968601B2
